Test: Three compartment pharmacokinetic analysis of HFA elimination in breath after Flovent HFA
Format: in vivo, human
Settings: human, exhaled breath, inhaled, subject #1; read-out: Half-life corresponding to L3
parameterMeasured: half-life (h)
All answers are understood in h, so give the number only.

# query: half-life of entry FCC(F)(F)F [HFA-134a, 1,1,1,2-tetrafluoroethane] 7.37
